# targetUnderTest: Amine oxidase [flavin-containing] B (Homo sapiens)
# Sequence (P27338 whole entry): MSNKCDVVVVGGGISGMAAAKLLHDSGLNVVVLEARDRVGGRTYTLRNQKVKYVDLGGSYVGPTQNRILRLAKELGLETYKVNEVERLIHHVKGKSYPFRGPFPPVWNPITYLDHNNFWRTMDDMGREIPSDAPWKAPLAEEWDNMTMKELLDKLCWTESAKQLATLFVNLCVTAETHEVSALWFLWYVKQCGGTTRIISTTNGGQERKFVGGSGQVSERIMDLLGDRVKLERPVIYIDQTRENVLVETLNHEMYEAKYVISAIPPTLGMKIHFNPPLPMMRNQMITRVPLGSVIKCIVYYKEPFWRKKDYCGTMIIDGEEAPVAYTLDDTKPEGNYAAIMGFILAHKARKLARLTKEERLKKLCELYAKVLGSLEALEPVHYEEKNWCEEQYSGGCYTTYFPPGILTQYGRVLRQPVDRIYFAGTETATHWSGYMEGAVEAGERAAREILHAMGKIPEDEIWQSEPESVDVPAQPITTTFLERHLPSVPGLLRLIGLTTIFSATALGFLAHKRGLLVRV
# assayNotes: Inhibition of human recombinant MAO-B expressed in Pichia pastoris preincubated for 15 mins followed by substrate addition measured after 30 mins by MAO-Glo assay
pIC50: −log10 of the molar value.
attributeMeasured: pIC50

Recorded pIC50 of CN1CCN(c2ccc(C(=O)Nc3ccc([C@@H]4C[C@]4(N)CCc4ccccc4)cc3)cc2)CC1 (racemic) , please.
< 5.00

====

What follows is a record of IC50 for Lysine-specific demethylase 5B (Homo sapiens, UniProt Q9UGL1).

cpdSmiles: CCN(CCN(C)C)C(=O)CNCc1cc(C(=O)O)ccn1
IC50: < 100 nM
--
cpdSmiles: CCN(CCN(C)C)C(=O)CNCc1cc(CNC(=O)C(F)(F)F)ccn1
IC50: 250 nM
--
cpdSmiles: O=C(O)c1ccnc(CNCc2nccn2C/C=C/c2ccccc2)c1
IC50: < 250 nM
--
cpdSmiles: O=C(O)c1cnnc(CNCC(=O)N2CCCCC2)c1
IC50: < 250 nM
--
cpdSmiles: CCOC(=O)c1ccnc(CNCC(=O)N(CC)CCN(C)C)c1
IC50: 100 nM
--
cpdSmiles: CCN1CCC[C@H](CNCc2cc(C(=O)O)ccn2)C1=O
IC50: < 250 nM
--
cpdSmiles: CCN(CCN(C)C)C(=O)CNCc1cc(C(=O)OC)ccn1
IC50: < 100 nM

Could you now consider this next molecule?
# get_value(readout= IC50, system= Lysine-specific demethylase 5B (Homo sapiens, UniProt Q9UGL1)) for CCN(CC)CCCCNCc1cc(C=O)ccn1
< 250 nM

====

IC50 values recorded for Lysine-specific demethylase 6A (Homo sapiens)

cpdSmiles: CCN1CCC[C@H](CNCc2cc(C(=O)O)ccn2)C1=O
IC50: > 2500 nM
//
cpdSmiles: CCN(CC)CCCCNCc1cc(C=O)ccn1
IC50: > 2500 nM

For CCN(CCN(C)C)C(=O)CNCc1cc(C(=O)OC)ccn1 , what is its reported IC50?
< 100 nM

====

# targetUnderTest: UniProtKB O60341
# assayNotes: Inhibition of KDM1A in human THP1 cells assessed as inhibition of CD11b expressing cells incubated for 4 days by DAPI staining based flow cytometry
# Type: cell-based, THP-1
attributeMeasured: IC50

Quick check: IC50 of Cc1ccc(-c2cnc(NC[C@H]3CCNC3)nc2-c2ccc(C#N)cc2)cc1 ?
< 0.01 µM

====

# targetUnderTest: Egl nine homolog 1 (Homo sapiens, UniProt Q9GZT9)
# Sequence (Q9GZT9 whole entry, the tested form may be a part): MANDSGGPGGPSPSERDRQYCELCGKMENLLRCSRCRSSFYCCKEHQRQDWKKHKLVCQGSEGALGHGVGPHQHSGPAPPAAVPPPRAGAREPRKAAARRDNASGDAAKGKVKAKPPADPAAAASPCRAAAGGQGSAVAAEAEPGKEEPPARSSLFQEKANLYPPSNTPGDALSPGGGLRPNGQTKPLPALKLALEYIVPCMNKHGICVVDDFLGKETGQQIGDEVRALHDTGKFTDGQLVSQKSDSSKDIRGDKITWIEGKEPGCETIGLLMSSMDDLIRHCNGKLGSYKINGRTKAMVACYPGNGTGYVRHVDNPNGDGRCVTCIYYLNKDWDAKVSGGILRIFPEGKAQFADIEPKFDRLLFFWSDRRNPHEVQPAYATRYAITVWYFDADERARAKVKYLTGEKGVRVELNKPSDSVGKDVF
# assayNotes: Inhibition of PHD2 catalytic domain (unknown origin) after 24 hrs by alphascreen assay
attributeMeasured: IC50

Record request: IC50 value, item CCCCCCCCOC(=O)c1ccc(O)c2ncccc12
> 100 µM

====

# targetUnderTest: Lysine-specific histone demethylase 1A (Homo sapiens, UniProt O60341)
# assayNotes: biochemical
attributeMeasured: IC50 (nM)

compound: c1ccc(CN2CCC(CN[C@@H]3C[C@H]3c3ccccc3)CC2)cc1 (racemic)
IC50 / nM: 6

compound: CN1CCC(CN[C@@H]2C[C@H]2c2ccccc2)CC1 (racemic)
IC50 / nM: 6

====

# targetUnderTest: Amine oxidase [flavin-containing] B (Homo sapiens)
# assayNotes: Inhibition of MAO-B (unknown origin) using MAO substrate incubated for 1 hr by MAO-Glo assay
pIC50: −log10 of the molar value.
attributeMeasured: pIC50

Item O=C(N[C@@H](CCCCN[C@@H]1C[C@H]1c1ccccc1)C(=O)NCc1cccc(Cl)c1)c1ccc(-c2ccccc2)cc1 has what recorded pIC50?
< 4.00

====

# targetUnderTest: Lysine-specific histone demethylase 1A (Homo sapiens, UniProt O60341)
# assayNotes: Inhibition of human recombinant KDM1A expressed in Escherichia coli using H3K4me peptide substrate preincubated for 15 mins followed substrate addition measured after 12 mins by peroxidase coupled enzyme assay
attributeMeasured: IC50

# query: IC50 of entry CN1CCN(c2ccc(C(=O)Nc3ccc([C@@H]4C[C@]4(N)CCc4ccccc4)cc3)cc2)CC1 (racemic)
< 100 nM

====

# assayNotes: Antiproliferative activity against human KMS-12-BM cells assessed as reduction in cell viability after 120 hrs by ATPlite assay
# Type: functional, cell-based
pEC50: −log10 of the molar value.
attributeMeasured: pEC50

pEC50 lookup needed for CCN(CCN(C)C)C(=O)CNCc1cc(CNC(=O)C(F)(F)F)ccn1 , thanks.
> 6.60

====

# targetUnderTest: Lysine-specific histone demethylase 1A (Homo sapiens)
pIC50: −log10 of the molar value.
attributeMeasured: pIC50

1. C/C(=C\CC/C(C)=C/C(=O)O)CC/C=C(\C)CCCC(C)C
2. CSCCc1nc(-c2cc(N)ccc2Cl)oc1C
Min pIC50? 1 | 2 Indicate your choice by writing its label.
1
(1: 4.66, 2: 5.00)

====

# targetUnderTest: Lysine-specific demethylase 3A (Homo sapiens, UniProt Q9Y4C1)
# assayNotes: Inhibition of KDM3A (unknown origin) after 24 hrs by alphascreen assay
pIC50: −log10 of the molar value.
attributeMeasured: pIC50

I am curious: what pIC50 value has been reported for CCCCCCCCOC(=O)c1ccc(O)c2ncccc12 ?
< 4.00

====

# targetUnderTest: Lysine-specific demethylase 4B (Homo sapiens)
# Sequence (O94953 whole entry, the tested form may be a part): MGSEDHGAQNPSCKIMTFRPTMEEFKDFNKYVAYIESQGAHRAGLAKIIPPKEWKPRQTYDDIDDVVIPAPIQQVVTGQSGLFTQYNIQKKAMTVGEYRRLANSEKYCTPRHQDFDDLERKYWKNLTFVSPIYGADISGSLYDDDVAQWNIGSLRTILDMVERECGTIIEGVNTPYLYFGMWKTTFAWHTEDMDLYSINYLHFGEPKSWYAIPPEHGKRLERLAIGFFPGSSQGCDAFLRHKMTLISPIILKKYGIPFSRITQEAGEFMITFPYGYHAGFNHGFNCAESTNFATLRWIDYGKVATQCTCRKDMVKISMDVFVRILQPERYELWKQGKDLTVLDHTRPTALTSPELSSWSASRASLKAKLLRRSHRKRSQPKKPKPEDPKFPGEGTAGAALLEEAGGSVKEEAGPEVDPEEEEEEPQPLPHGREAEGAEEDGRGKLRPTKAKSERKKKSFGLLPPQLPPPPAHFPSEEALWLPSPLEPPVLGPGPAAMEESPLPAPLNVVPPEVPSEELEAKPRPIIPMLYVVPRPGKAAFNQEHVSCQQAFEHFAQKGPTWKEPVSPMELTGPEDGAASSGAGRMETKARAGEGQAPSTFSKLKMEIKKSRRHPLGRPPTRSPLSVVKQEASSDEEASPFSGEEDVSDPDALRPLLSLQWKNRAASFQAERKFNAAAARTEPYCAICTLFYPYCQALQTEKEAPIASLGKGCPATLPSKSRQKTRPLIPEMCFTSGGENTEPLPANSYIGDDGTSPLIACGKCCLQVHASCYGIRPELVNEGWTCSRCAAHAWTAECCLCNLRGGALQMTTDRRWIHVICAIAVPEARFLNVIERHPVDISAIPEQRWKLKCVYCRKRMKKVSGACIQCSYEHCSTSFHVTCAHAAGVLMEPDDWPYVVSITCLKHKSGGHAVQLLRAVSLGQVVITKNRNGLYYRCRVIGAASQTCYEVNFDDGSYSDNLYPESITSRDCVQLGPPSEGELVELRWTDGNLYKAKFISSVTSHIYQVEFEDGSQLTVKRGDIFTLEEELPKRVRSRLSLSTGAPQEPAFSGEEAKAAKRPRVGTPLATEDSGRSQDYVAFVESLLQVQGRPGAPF
# assayNotes: biochemical
pIC50: −log10 of the molar value.
attributeMeasured: pIC50

cpdSmiles: CN(C)CCCCCCNC(=O)c1cccc(-c2cc(O)c3ncccc3c2)c1
reading: > 6.00
--
cpdSmiles: O=C(O)c1ccc(O)c2ncc(N3CCCN(CCc4cccc5ccccc45)CC3)cc12
reading: > 6.00

Would you kindly look at the next entry?
Given O=C(NCCCc1ccccc1)c1cccc(-c2cc(O)c3ncccc3c2)c1 , state its recorded pIC50.
8.00

====

# targetUnderTest: UniProtKB P27338
attributeMeasured: IC50 (µM)

compound: c1ccc(CN2CCC(CN[C@@H]3C[C@H]3c3ccccc3)CC2)cc1 (racemic)
IC50 / µM: 25
--
compound: CN1CCC(CN[C@@H]2C[C@H]2c2ccccc2)CC1 (racemic)
IC50 / µM: 25

====

Catalogue of pIC50 values
# targetUnderTest: Lysine-specific demethylase 4B (Homo sapiens)
# assayNotes: Inhibition of human N-terminal GST-tagged KDM4B (1 to 500 residues) expressed in baculovirus infected sf9 cells using biotinylated histone H3 as substrate preincubated for 10 mins followed by substrate addition measured after 10 mins by AlphaLisa assay
pIC50: −log10 of the molar value.

// known answers, use as guide
cpdSmiles: CCN(CCN(C)C)C(=O)CNCc1cc(C(=O)O)ccn1
reading: > 7.00
--
cpdSmiles: CCN(CCN(C)C)C(=O)CNCc1cc(CNC(=O)C(F)(F)F)ccn1
reading: < 5.60

Note: attention shifts to another entry.
Dear colleague, I am looking for the recorded pIC50 of the following molecule: CCN(CC)CCCCNCc1cc(C=O)ccn1
> 6.60

====

# targetUnderTest: Lysine-specific demethylase 5C (Homo sapiens)
# Sequence (P41229 whole entry): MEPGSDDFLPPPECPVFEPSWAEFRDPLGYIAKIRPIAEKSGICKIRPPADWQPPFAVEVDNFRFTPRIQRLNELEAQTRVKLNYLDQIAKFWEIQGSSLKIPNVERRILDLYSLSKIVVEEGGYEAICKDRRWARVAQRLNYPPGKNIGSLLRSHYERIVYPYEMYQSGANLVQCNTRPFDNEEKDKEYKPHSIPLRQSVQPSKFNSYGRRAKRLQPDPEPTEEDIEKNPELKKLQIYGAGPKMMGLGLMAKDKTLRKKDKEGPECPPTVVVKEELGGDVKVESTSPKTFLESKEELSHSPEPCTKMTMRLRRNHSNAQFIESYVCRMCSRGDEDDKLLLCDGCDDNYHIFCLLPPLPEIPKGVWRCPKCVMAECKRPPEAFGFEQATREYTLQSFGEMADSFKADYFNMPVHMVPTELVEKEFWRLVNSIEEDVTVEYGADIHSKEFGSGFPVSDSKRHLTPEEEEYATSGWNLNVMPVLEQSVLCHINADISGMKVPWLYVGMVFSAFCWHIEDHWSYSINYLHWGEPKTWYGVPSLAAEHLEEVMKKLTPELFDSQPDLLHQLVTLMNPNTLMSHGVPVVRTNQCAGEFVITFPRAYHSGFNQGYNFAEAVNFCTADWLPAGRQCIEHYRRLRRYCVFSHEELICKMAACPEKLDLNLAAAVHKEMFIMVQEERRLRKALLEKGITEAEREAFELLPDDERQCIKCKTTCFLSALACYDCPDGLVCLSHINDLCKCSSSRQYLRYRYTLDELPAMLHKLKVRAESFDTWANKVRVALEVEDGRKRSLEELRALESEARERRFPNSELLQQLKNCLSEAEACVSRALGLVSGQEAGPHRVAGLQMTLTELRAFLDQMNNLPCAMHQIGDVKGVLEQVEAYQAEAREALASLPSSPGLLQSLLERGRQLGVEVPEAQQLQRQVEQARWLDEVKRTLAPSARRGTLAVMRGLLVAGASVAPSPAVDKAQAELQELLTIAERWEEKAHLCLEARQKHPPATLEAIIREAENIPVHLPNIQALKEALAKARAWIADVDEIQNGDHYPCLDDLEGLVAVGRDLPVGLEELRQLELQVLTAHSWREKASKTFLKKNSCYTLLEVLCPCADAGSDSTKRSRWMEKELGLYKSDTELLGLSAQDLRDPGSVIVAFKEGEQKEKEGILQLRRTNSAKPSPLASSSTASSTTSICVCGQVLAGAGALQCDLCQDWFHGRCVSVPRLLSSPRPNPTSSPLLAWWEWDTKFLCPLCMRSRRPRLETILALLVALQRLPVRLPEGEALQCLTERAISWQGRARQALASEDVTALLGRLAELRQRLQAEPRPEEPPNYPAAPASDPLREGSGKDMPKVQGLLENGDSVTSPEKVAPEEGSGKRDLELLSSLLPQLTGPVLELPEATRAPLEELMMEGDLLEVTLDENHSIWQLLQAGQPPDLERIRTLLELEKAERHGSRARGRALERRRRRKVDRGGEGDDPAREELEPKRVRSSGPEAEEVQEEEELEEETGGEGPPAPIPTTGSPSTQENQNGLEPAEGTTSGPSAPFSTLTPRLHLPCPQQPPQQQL
# assayNotes: Inhibition of KDM5C (unknown origin) preincubated for 15 mins followed by histone substrate addition measured after 1 hr by alphascreen assay
attributeMeasured: pIC50
Would you please state pIC50, meaning minus log10 of the concentration in mol/L, as a bare number?

State the recorded pIC50 for this entry: Cc1ccsc1C(NC(=O)c1ccccc1)c1cc(Cl)c2cccnc2c1O (racemic)
3.75

====

# targetUnderTest: UniProtKB Q9Y2K7
# assayNotes: Inhibition of KDM2A (unknown origin) after 24 hrs by alphascreen assay
pIC50: −log10 of the molar value.
attributeMeasured: pIC50

// fetch UniProtKB Q9Y2K7 pIC50 for CCCCCCCCOC(=O)c1ccc(O)c2ncccc12
< 4.00

====

# targetUnderTest: Lysine-specific demethylase 4C (Homo sapiens)
# Sequence (Q9H3R0 whole entry, the tested form may be a part): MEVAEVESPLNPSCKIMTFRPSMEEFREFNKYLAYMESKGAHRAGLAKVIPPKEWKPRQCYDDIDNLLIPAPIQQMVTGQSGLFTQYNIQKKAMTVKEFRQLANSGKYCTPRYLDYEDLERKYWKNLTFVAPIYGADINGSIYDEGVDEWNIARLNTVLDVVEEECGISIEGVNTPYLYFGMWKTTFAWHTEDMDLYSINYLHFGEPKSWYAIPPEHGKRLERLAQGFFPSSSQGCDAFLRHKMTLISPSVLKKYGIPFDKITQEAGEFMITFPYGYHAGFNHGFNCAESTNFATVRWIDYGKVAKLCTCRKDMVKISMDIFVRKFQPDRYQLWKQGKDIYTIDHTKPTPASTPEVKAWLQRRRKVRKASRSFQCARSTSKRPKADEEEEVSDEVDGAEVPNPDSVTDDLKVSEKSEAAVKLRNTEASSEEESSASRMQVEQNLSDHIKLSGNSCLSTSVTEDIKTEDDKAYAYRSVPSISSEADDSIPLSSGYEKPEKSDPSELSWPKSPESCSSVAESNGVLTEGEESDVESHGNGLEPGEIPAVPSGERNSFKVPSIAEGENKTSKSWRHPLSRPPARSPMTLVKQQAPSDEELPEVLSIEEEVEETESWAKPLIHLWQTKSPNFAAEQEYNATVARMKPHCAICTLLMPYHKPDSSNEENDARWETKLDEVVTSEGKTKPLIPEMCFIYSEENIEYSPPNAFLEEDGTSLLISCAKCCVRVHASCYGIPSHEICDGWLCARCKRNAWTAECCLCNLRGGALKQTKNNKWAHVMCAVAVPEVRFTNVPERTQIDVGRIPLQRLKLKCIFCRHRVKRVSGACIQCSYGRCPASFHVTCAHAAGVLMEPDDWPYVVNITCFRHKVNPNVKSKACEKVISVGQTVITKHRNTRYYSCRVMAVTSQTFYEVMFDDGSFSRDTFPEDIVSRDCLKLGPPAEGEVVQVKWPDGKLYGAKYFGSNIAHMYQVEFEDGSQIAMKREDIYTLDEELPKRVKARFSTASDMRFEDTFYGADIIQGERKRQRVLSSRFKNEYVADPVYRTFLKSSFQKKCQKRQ
# assayNotes: Inhibition of KDM4C (1 to 350 residues) (unknown origin) expressed in Escherichia coli using […] as substrate
Entries annotated with measured IC50

Report IC50 for O=C(O)c1ccc(O)c2ncc(N3CCCN(CCc4cccc5ccccc45)CC3)cc12 tested on Lysine-specific demethylase 4C (Homo sapiens).
< 1000 nM

Entry O=C(NCCCc1ccccc1)c1cccc(-c2cc(O)c3ncccc3c2)c1 , system Lysine-specific demethylase 4C (Homo sapiens): what IC50 was measured?
< 1000 nM

Under Lysine-specific demethylase 4C (Homo sapiens): IC50 value of CN(C)CCCCCCNC(=O)c1cccc(-c2cc(O)c3ncccc3c2)c1 ?
< 1000 nM

====

# targetUnderTest: Lysine-specific demethylase 4A (Homo sapiens)
# Sequence (O75164 whole entry): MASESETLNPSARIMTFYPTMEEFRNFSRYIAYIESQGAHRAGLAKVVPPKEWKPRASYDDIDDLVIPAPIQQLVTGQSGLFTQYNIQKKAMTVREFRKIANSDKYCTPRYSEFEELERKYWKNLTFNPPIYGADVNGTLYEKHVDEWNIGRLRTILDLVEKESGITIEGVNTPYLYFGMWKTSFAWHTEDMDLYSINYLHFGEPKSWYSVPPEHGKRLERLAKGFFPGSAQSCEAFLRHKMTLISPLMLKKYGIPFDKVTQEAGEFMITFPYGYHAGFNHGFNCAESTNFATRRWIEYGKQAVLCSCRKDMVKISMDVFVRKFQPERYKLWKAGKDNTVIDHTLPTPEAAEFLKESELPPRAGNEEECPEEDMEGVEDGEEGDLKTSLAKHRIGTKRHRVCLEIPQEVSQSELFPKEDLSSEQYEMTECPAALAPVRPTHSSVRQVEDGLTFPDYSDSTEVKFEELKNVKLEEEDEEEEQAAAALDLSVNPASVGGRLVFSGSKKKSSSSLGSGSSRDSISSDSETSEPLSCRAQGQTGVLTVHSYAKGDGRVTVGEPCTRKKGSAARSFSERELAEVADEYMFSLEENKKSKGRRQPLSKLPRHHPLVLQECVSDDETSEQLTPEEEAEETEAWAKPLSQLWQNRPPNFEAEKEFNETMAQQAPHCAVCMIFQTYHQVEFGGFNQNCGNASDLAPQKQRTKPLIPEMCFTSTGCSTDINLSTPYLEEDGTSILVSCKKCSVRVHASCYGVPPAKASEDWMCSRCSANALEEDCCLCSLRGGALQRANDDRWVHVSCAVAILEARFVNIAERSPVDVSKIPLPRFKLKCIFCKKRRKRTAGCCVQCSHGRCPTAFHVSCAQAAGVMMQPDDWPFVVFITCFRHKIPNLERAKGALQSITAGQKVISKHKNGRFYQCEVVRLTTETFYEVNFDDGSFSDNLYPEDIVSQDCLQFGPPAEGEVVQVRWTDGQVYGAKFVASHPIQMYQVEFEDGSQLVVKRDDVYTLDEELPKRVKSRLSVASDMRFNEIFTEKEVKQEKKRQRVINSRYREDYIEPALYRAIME
attributeMeasured: IC50 (nM)

cpdSmiles: COc1cc(COc2cc3nccc(C(=O)O)c3[nH]2)ccc1Cl
IC50 / nM: 100

I. O=C(O)c1ccnc2cc(OCc3ccc(Cl)c(OC(F)(F)F)c3)[nH]c12
II. O=C(O)c1ccnc2cc(OCc3ccc(Cl)c(OCC4CC4)c3)[nH]c12
Hi, I'm comparing I with II and wondering which one has the bigger number for IC50. Any idea? Please respond with the label that marks your chosen entry.
II
(II: 1000 nM, I: 100 nM)
